molecular target: Ataxin-2 (Homo sapiens) (UniProt Q99700); test: qHTS for Inhibitors of ATXN expression.; type: functional
Sequence (Q99700 whole entry): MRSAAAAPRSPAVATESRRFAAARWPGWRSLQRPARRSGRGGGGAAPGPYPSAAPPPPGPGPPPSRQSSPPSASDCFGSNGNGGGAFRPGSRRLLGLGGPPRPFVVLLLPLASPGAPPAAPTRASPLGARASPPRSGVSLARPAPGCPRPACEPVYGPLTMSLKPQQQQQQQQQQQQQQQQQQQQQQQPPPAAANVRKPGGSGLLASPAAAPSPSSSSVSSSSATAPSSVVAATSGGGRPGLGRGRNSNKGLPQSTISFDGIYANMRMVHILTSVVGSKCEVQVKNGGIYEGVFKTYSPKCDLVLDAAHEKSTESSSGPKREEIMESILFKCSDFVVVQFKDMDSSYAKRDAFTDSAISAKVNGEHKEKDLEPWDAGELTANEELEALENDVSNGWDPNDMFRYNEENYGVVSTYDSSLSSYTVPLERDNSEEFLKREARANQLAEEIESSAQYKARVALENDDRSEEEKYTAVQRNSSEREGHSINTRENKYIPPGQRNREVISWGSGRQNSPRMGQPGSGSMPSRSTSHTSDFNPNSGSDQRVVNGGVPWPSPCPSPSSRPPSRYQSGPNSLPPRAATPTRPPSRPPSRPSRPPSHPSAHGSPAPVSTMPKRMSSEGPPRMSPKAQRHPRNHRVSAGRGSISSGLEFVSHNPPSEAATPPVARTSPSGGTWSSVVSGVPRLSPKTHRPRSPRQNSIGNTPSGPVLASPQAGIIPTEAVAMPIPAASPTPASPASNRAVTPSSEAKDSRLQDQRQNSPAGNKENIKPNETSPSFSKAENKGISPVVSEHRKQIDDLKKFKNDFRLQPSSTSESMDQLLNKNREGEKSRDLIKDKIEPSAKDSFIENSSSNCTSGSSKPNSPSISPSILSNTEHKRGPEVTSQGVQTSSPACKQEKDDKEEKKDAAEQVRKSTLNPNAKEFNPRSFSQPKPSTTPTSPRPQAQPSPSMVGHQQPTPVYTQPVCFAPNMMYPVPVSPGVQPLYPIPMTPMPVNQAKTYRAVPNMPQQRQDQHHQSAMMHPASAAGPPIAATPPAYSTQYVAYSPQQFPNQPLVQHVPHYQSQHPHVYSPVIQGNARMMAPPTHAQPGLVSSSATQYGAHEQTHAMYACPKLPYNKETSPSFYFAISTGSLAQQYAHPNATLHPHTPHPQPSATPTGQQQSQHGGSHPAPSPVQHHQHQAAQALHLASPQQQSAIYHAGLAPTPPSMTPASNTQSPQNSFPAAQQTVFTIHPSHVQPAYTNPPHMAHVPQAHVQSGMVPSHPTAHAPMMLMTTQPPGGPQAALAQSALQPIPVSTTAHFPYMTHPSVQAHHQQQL
Among all 400,000 compounds or so, about 2,100 (0.53%) were called active. Roughly 14% stayed inconclusive and do not appear here. The rule behind the calls is not given here. Many of the other results were omitted from the sample, so actives are more common in it than they were.
Possible outcomes: active, inactive

compound	experimental system	assigned class
CS(=O)(=O)c1ccc([S+]([O-])CC(=O)OCc2ccccc2)c([N+](=O)[O-])c1 (centres undefined)	Ataxin-2 (Homo sapiens) (UniProt Q99700)	active
Cc1cc(-c2nc(-c3ccncc3)no2)ccc1[N+](=O)[O-]	Ataxin-2 (Homo sapiens) (UniProt Q99700)	inactive
CCN(CC)CCn1c(C)nc2c(sc3nc4c(cc32)COC(C)(C)C4)c1=O	Ataxin-2 (Homo sapiens) (UniProt Q99700)	inactive
COc1ccc(CSc2ncnc3sccc23)cc1F	Ataxin-2 (Homo sapiens) (UniProt Q99700)	inactive
CCOC(=O)c1ccc(N2CCOCC2)c(NC(=O)c2ccc3c(c2)OCO3)c1	Ataxin-2 (Homo sapiens) (UniProt Q99700)	inactive
CCCCNC(=O)COC(=O)c1c2c(nc3ccccc13)/C(=C/c1cccs1)CC2	Ataxin-2 (Homo sapiens) (UniProt Q99700)	inactive
CCCN(CCC)S(=O)(=O)c1ccc(C(=O)OCCN2C(=O)c3cccc4c(N5CCOCC5)ccc(c34)C2=O)cc1	Ataxin-2 (Homo sapiens) (UniProt Q99700)	inactive
Cc1csc(N2CCN(c3cc4c(cc3Cl)nc(-c3ccncc3)n4CCCN3CCCC3)CC2)n1	Ataxin-2 (Homo sapiens) (UniProt Q99700)	active
O=C(Nc1ccc(C(=O)NCCCN2CCN(c3ccc(F)cc3)CC2)cc1)C1=CSCCO1	Ataxin-2 (Homo sapiens) (UniProt Q99700)	inactive
Cc1ccccc1C(=O)Nc1cc(C(F)(F)F)ccc1-n1cncn1	Ataxin-2 (Homo sapiens) (UniProt Q99700)	inactive
CC1CN(C(S)=Nc2ccc(Cl)cc2)CC(C)O1 (centres undefined)	Ataxin-2 (Homo sapiens) (UniProt Q99700)	inactive
O=C(N/N=C/c1cc(Cl)cc([N+](=O)[O-])c1O)c1ccccc1NS(=O)(=O)c1cccs1	Ataxin-2 (Homo sapiens) (UniProt Q99700)	inactive
Clc1ccc(N2N=C(c3cccs3)CC2c2ccco2)cc1 (centres undefined)	Ataxin-2 (Homo sapiens) (UniProt Q99700)	inactive
Cc1cccc(NC(=O)NNC(=O)c2cc3ccccc3cc2O)c1C	Ataxin-2 (Homo sapiens) (UniProt Q99700)	inactive
O=[N+]([O-])c1ccc(-c2csc(N3CCCCCC3)n2)cc1	Ataxin-2 (Homo sapiens) (UniProt Q99700)	inactive
CCOCCCn1/c(=N/C(=O)c2cccs2)c(C#N)cc2c(=O)n3ccccc3nc21	Ataxin-2 (Homo sapiens) (UniProt Q99700)	inactive
COc1ccc(C2CC(c3cccc(Br)c3)=NN2c2ccc(S(N)(=O)=O)cc2)cc1 (centres undefined)	Ataxin-2 (Homo sapiens) (UniProt Q99700)	inactive
COc1ccc(C2=NN(c3ccccc3)C(c3cccs3)C2)cc1 (centres undefined)	Ataxin-2 (Homo sapiens) (UniProt Q99700)	inactive
Cc1ccc(C2CC(c3cccs3)=NN2C(=O)CCl)cc1 (centres undefined)	Ataxin-2 (Homo sapiens) (UniProt Q99700)	active
Cc1ccc2nc3c(cc(C(=O)NCC4CCCO4)c(=N)n3C(C)C)c(=O)n2c1 (centres undefined)	Ataxin-2 (Homo sapiens) (UniProt Q99700)	inactive
O=C(Nc1ccc2cccnc2c1)c1ccc(Br)cc1	Ataxin-2 (Homo sapiens) (UniProt Q99700)	inactive
Cc1ccc(S(=O)(=O)N2CCOCC2)cc1NC(=O)COC(=O)/C=C/c1ccco1	Ataxin-2 (Homo sapiens) (UniProt Q99700)	inactive
O=c1[nH][nH]c(=O)c2c(NS(=O)(=O)c3ccccc3)cccc12	Ataxin-2 (Homo sapiens) (UniProt Q99700)	inactive
CCCC/N=C1\C(=O)N(C)c2cccc3c(O)c4ccccc4c1c23	Ataxin-2 (Homo sapiens) (UniProt Q99700)	inactive
CCN(CC)CCCNc1cc(C(F)(F)F)c(C#N)c2nc3ccccc3n12	Ataxin-2 (Homo sapiens) (UniProt Q99700)	inactive
CCOc1cc(CNC(C)(C)CO)cc(Br)c1OCc1ccc(Cl)cc1Cl	Ataxin-2 (Homo sapiens) (UniProt Q99700)	active
O=C(CCl)N1N=C(c2cccs2)CC1c1ccco1 (centres undefined)	Ataxin-2 (Homo sapiens) (UniProt Q99700)	active
Cc1ccc(C)c(Oc2coc3cc(O)ccc3c2=O)c1	Ataxin-2 (Homo sapiens) (UniProt Q99700)	inactive
COc1ccc(CCNC(=O)c2c(C)nn(-c3ccc(F)cc3)c2-n2cccc2)c(OC)c1OC	Ataxin-2 (Homo sapiens) (UniProt Q99700)	active
CC(C)n1/c(=N/C(=O)c2ccco2)c(C#N)cc2c(=O)n3ccccc3cc21	Ataxin-2 (Homo sapiens) (UniProt Q99700)	inactive
Cc1cc(NC(=O)COC(=O)c2cccc(O)c2)no1	Ataxin-2 (Homo sapiens) (UniProt Q99700)	inactive
Cc1ccc(-n2nc(C)c(C(=O)NCCCN3CCN(c4ccc(F)cc4)CC3)c2-n2cccc2)cc1	Ataxin-2 (Homo sapiens) (UniProt Q99700)	active
O=C(COc1ccc2ccc(=O)oc2c1)OCc1ccccc1	Ataxin-2 (Homo sapiens) (UniProt Q99700)	inactive
Cc1nc(SCc2ccccc2)nc2c1CCC2	Ataxin-2 (Homo sapiens) (UniProt Q99700)	inactive
Cc1cccc(N2CCN(C(=O)Cc3ccccc3[N+](=O)[O-])CC2)c1C	Ataxin-2 (Homo sapiens) (UniProt Q99700)	inactive
O=C1/C(=C/c2ccco2)Oc2c1ccc(O)c2CN1CCCCC1	Ataxin-2 (Homo sapiens) (UniProt Q99700)	inactive
CCCCN(CCCC)C(=O)c1cc2c(=O)n3cccc(C)c3nc2s1	Ataxin-2 (Homo sapiens) (UniProt Q99700)	inactive
COc1ccccc1N1N=C(c2cccs2)CC1c1ccccc1 (centres undefined)	Ataxin-2 (Homo sapiens) (UniProt Q99700)	inactive
CCCCCCc1cc2cc(C(=O)NC)c(=N)oc2cc1O	Ataxin-2 (Homo sapiens) (UniProt Q99700)	inactive
Cc1ccc(C2=NN(C(=O)CCl)C(c3cccs3)C2)o1 (centres undefined)	Ataxin-2 (Homo sapiens) (UniProt Q99700)	active
C/C(=N\NC(=O)CN1CCN(c2ccc(F)cc2)CC1)c1ccco1	Ataxin-2 (Homo sapiens) (UniProt Q99700)	inactive
O=C(NC(=S)N1CCN(c2ccc(C(F)(F)F)cc2[N+](=O)[O-])CC1)c1cccs1	Ataxin-2 (Homo sapiens) (UniProt Q99700)	active
CC(=O)Nc1ccc(C2=NN(c3ccccc3)C(c3cccs3)C2)cc1 (centres undefined)	Ataxin-2 (Homo sapiens) (UniProt Q99700)	inactive
O=[N+]([O-])c1ccc(C2NS(=O)(=O)N=C3CCCCCN32)cc1 (centres undefined)	Ataxin-2 (Homo sapiens) (UniProt Q99700)	inactive
